For each entry below, report its residual kinase activity, MKK6 value.
target-of-assay: MKK6 (Homo sapiens, UniProt P52564)
Sequence (P52564 whole entry, species assumed): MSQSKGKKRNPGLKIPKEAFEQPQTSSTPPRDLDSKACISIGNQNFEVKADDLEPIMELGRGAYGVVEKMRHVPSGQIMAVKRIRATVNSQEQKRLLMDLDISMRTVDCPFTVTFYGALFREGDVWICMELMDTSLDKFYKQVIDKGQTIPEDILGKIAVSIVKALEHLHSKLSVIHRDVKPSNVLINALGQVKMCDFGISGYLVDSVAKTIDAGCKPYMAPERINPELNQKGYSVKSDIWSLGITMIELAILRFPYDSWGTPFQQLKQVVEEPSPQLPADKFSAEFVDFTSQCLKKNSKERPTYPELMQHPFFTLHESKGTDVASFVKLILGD
procedure-text: Kinase profiling MKK6
Type: biochemical
condition-label: 100 micromolar inhibitor concentration; 100 is no change
Please give only the number in your answer, with no unit.

Consider the molecule shown here: `O=C(Nc1nc2ccc(O)cc2s1)c1ccccc1` What is its recorded residual kinase activity, MKK6?
109

How about this molecule: `O=C(Nc1nc2cc(O)ccc2s1)c1ccccn1`
105

How about this molecule: `CC(=O)Nc1ccccc1C(=O)Nc1nc2ccc(O)cc2s1`
96

How about this molecule: `CC(=O)Nc1nc2ccccc2s1`
85

How about this molecule: CC(=O)NC(C)C(=O)Nc1nc2ccc(C(F)(F)F)cc2s1 (stereo not drawn)
115

How about this molecule: `O=C(Nc1nc2ccc(O)cc2s1)c1ccccn1`
99

====

For each entry below, report its remaining activity at 100 µM value.
target-of-assay: PAK2 (Homo sapiens, UniProt Q13177)
Sequence (Q13177 whole entry, species assumed): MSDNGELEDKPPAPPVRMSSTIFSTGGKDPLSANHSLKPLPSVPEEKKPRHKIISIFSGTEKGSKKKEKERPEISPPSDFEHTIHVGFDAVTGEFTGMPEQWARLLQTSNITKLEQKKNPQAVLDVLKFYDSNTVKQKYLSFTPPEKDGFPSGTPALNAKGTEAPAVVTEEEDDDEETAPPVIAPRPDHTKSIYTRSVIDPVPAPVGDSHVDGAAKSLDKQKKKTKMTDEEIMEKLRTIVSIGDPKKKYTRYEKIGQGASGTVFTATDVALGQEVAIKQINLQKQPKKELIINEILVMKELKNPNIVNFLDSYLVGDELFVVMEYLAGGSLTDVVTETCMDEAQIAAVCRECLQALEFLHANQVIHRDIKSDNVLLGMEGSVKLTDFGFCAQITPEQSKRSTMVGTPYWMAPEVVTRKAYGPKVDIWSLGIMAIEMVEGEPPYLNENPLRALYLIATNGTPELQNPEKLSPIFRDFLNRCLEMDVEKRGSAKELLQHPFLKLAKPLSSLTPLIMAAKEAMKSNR
procedure-text: Kinase profiling PAK2
Assay type: biochemical
condition-label: 100 micromolar inhibitor concentration; 100 is no change; read-out: residual kinase activity, PAK2
Kindly answer with a numeric value in %, unit omitted.

Consider the molecule shown here: CC(=O)Nc1nc2cc(C(F)(F)F)ccc2s1 [Compound 03-73] What is its recorded remaining activity at 100 µM?
85

How about this molecule: COc1ccc2sc(NC(C)=O)nc2c1 [Compound 03-21]
95

How about this molecule: CC(=O)Nc1nc2ccc(C(F)(F)F)cc2s1 [Compound 01-90]
103

How about this molecule: CC(=O)Nc1nc2cc(F)ccc2s1 [Compound 03-77]
11

How about this molecule: CC(=O)Nc1nc2ccc(O)cc2s1 [Compound 01-71]
102

How about this molecule: CC(=O)Nc1nc2ccc(C#N)cc2s1 [Compound 01-94]
101

====

For each entry below, report its residual kinase activity, PDGFRA value.
target-of-assay: PDGFRA (Homo sapiens, UniProt P16234)
Sequence (P16234 24-1089, species assumed): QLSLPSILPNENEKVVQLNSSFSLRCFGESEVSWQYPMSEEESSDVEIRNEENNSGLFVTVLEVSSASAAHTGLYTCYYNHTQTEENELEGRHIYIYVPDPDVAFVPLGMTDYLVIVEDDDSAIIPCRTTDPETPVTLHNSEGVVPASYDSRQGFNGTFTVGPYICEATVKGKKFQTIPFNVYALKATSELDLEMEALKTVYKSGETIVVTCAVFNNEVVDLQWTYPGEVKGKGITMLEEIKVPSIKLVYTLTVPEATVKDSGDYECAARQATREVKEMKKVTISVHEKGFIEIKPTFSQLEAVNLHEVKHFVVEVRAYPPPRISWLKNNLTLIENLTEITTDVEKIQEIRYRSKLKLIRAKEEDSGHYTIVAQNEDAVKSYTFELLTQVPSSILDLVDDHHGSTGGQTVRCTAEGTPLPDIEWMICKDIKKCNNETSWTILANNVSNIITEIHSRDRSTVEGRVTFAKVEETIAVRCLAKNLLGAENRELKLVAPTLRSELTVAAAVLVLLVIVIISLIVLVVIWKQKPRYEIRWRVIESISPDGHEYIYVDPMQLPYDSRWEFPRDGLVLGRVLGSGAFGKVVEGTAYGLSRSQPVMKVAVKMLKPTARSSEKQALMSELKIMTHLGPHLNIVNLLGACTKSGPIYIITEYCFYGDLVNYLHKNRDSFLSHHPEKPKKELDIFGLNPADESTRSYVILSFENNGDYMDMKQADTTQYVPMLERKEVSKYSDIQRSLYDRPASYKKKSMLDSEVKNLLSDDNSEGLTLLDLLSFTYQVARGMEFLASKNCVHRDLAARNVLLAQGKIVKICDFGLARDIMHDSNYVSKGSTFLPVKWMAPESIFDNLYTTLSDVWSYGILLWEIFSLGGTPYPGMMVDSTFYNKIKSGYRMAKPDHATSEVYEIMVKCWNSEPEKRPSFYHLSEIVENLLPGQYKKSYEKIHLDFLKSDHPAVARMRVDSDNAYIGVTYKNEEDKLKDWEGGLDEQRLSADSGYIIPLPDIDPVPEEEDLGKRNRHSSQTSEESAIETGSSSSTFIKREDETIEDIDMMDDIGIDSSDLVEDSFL
procedure-text: Kinase profiling PDGFRA
Type: biochemical
condition-label: 100 micromolar inhibitor concentration; 100 is no change
Please give only the number in your answer, with no unit.

Consider the molecule shown here: `O=C(Nc1nc2cc(O)ccc2s1)c1ccncc1` What is its recorded residual kinase activity, PDGFRA?
63

How about this molecule: `O=C(Nc1nc2ccc(O)cc2s1)c1cccnc1`
44

How about this molecule: `O=C(Nc1nc2cc(O)ccc2s1)c1ccccn1`
43

How about this molecule: `CC(=O)Nc1nc2cc(C)ccc2s1`
59

How about this molecule: `CC(=O)Nc1nc2ccccc2s1`
78

How about this molecule: `O=C(Nc1nc2ccc(O)cc2s1)c1ccccn1`
56

====

target-of-assay: STK33 (Homo sapiens)
Sequence (Q9BYT3 whole entry, species assumed): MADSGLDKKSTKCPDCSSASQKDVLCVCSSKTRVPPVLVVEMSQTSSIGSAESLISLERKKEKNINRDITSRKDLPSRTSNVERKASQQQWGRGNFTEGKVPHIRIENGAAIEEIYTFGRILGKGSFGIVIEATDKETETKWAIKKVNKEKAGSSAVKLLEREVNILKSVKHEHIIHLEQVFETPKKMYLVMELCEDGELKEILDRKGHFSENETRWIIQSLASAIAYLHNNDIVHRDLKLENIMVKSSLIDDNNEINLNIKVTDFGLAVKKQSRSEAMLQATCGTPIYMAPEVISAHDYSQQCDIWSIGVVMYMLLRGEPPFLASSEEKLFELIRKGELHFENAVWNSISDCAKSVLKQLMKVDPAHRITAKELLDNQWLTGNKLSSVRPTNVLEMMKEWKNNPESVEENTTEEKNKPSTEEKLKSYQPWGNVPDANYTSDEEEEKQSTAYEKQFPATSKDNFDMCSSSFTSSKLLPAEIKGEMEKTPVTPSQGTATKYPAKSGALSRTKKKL
procedure-text: Kinase profiling STK33
Type: biochemical
condition-label: 100 micromolar inhibitor concentration; 100 is no change
Text: Any value less that 25 is considered to be highly significant inhibition.
Label rule not met if residual kinase activity, STK33 falls below 70; label rule met in every other case.

Check this molecule for residual kinase activity, STK33 at or above 70: `CC(=O)Nc1ccc(C(=O)Nc2nc3cc(O)ccc3s2)cc1`
rule not met

How about this molecule: `COc1ccc2sc(NC(=O)c3cccc(NC(C)=O)c3)nc2c1`
rule met

How about this molecule: `CC(=O)Nc1cccc(C(=O)Nc2nc3cc(O)ccc3s2)c1`
rule not met

How about this molecule: `O=C(Nc1nc2ccc(O)cc2s1)c1cccnc1`
rule not met

How about this molecule: `O=C(Nc1nc2ccc(O)cc2s1)c1ccccc1`
rule not met

How about this molecule: `CC(=O)Nc1ccccc1C(=O)Nc1nc2ccc(O)cc2s1`
rule not met

How about this molecule: `CC(=O)Nc1nc2cc(C)ccc2s1`
rule met

How about this molecule: `CC(=O)Nc1cccc(C(=O)Nc2nc3ccc(O)cc3s2)c1`
rule not met

How about this molecule: `O=C(Nc1nc2ccc(O)cc2s1)c1ccncc1`
rule not met
